assay: Hematology assays after subcutaneous administration in CD-1 mice (Example 6); assay type: in vivo; parameters: unit not given here; details: 50 mg/kg subcutaneous twice weekly for 7 weeks
Strand notation (5' to 3'): a small letter for the sugar, then the base; units joined by * are phosphorothioate-linked, units joined directly phosphodiester-linked; [ ] holds rarer units or linkages, { } end groups; capitals alone tell only the bases. k = constrained ethyl (cEt); [5mC] = 5-methylcytosine; d = 2'-deoxy (DNA)
Field 'label' (enum: YES / NO). Set to YES when Eosinophils is strictly under 2; else NO.

>>> label_value("830027 (antisense kA*kA*k[5mC]*d[5mC]*dA*dT*dT*dT*dA*dT*d[5mC]*dT*dG*kG*kT*kG) [compound 830027]")
"YES"
>>> label_value("790615 (CCAATGAGAATGCTTC; 3-10-3 cEt gapmer, further chemistry not given here) [compound 790615]")
"NO"
>>> label_value("799144 (antisense kT*kT*kG*dG*dG*dT*dT*dA*dT*dG*dA*d[5mC]*dG*kG*kA*k[5mC]) [compound 799144]")
"NO"
>>> label_value("798781 (CGTAAGATTCACAGCA; 3-10-3 cEt gapmer, further chemistry not given here) [compound 798781]")
"NO"
>>> label_value("830025 (antisense TTTGTAAATCGAAAGC; 3-10-3 cEt gapmer, further chemistry not given here) [compound 830025]")
"NO"
>>> label_value("830121 (AGAATCAAGCCCTGGC; 3-10-3 cEt gapmer, further chemistry not given here) [compound 830121]")
"NO"
>>> label_value("829994 (GGAGGCAGGGCCGCGA; 3-10-3 cEt gapmer, further chemistry not given here) [compound 829994]")
"YES"
